- Tested on: Puccinia recondita f. sp. tritici
- runDescription: Puccinia recondita f. sp. tritici / wheat / leaf disc preventative (brown rust)
- Type: in vivo
- experimentalSetup: foliar, compared to untreated control leaf disks, read-out: disease control
// values below are reported pest or weed control at 200 ppm

{"compound": "CCN(C)/C=N/c1cc(Br)c(OCc2ccccc2Br)nc1C", "pest or weed control at 200 ppm": "≥ 50%"}
{"compound": "CCN(C)/C=N/c1cc(Br)c(OC2CCN(C(=O)OC(C)(C)C)CC2)nc1C", "pest or weed control at 200 ppm": "≥ 50%"}
{"compound": "C=Cc1ccccc1COc1nc(C)c(/N=C/N(C)CC)cc1Br", "pest or weed control at 200 ppm": "≥ 50%"}
{"compound": "CCN(C)/C=N/c1cc(Br)c(OC(C)c2cccc(CCc3ccccc3)c2)nc1C (stereo not shown)", "pest or weed control at 200 ppm": "≥ 50%"}
{"compound": "CCN(C)/C=N/c1ccc(O[C@H]2CC[C@H](C(C)C)CC2)nc1C", "pest or weed control at 200 ppm": "≥ 50%"}
{"compound": "CCN(C)/C=N/c1cc(Br)c(OCc2ccccc2S(C)(=O)=O)nc1C", "pest or weed control at 200 ppm": "≥ 50%"}
{"compound": "CCN(C)/C=N/c1ccc(OC(C)Cc2ccccc2)nc1C (stereo not shown)", "pest or weed control at 200 ppm": "≥ 50%"}
{"compound": "CCN(C)/C=N/c1cc(Br)c(OC(C)c2cc(Cl)cc(Cl)c2)nc1C (stereo not shown)", "pest or weed control at 200 ppm": "≥ 50%"}
{"compound": "CCN(C)/C=N/c1cc(Br)c(OCC2CC=CC2)nc1C", "pest or weed control at 200 ppm": "≥ 50%"}
{"compound": "CCN(C)/C=N/c1cc(Br)c(OC(C)CC(C)C)nc1C (stereo not shown)", "pest or weed control at 200 ppm": "≥ 50%"}
{"compound": "CCN(C)/C=N/c1cc(-c2ccccc2)c(OC(C)c2cc(F)cc(F)c2)nc1C (stereo not shown)", "pest or weed control at 200 ppm": "≥ 50%"}
{"compound": "CCN(C)/C=N/c1cc(Br)c(OCc2cc(-c3ccc(F)cc3)ns2)nc1C", "pest or weed control at 200 ppm": "≥ 50%"}
{"compound": "CCN(C)/C=N/c1cc(Br)c(OC(C)c2ccccc2Cl)nc1C (stereo not shown)", "pest or weed control at 200 ppm": "≥ 50%"}
{"compound": "CCN(C)/C=N/c1cc(C)c(OCCCC(C)C)nc1C", "pest or weed control at 200 ppm": "≥ 50%"}
{"compound": "CCN(C)/C=N/c1cc(-c2ccsc2)c(OC(C)c2cc(F)cc(F)c2)nc1C (stereo not shown)", "pest or weed control at 200 ppm": "≥ 50%"}
{"compound": "CCN(C)/C=N/c1cc(Br)c(OC2CC(C)C(C)C2)nc1C (stereo not shown)", "pest or weed control at 200 ppm": "≥ 50%"}
{"compound": "CCN(C)/C=N/c1cc(Br)c(OC(CC(C)C)CC(C)C)nc1C", "pest or weed control at 200 ppm": "≥ 50%"}
{"compound": "C=C(C)CC(CC(=C)C)Oc1nc(C)c(/N=C/N(C)CC)cc1Br", "pest or weed control at 200 ppm": "≥ 50%"}
{"compound": "COc1cc(OC)cc(C(C)Oc2ccc(/N=C/N(C)C(C)C)c(C)n2)c1 (stereo not shown)", "pest or weed control at 200 ppm": "≥ 50%"}
{"compound": "CCN(C)/C=N/c1cc(Br)c(OCc2cccc(C(C)F)c2)nc1C (stereo not shown)", "pest or weed control at 200 ppm": "≥ 50%"}
{"compound": "Cc1nc(OCCCC(C)C)c(Br)cc1/N=C/NC(C)(C)C", "pest or weed control at 200 ppm": "≥ 50%"}
{"compound": "CCN(C)/C=N/c1cc(Br)c(OCCc2ccc(OC)cc2)nc1C", "pest or weed control at 200 ppm": "≥ 50%"}
{"compound": "CCN(C)/C=N/c1cc(Br)c(OC2CCSCC2)nc1C", "pest or weed control at 200 ppm": "≥ 50%"}
{"compound": "CCCN/C=N/c1cc(Br)c(OCCCC(C)C)nc1C", "pest or weed control at 200 ppm": "≥ 50%"}
{"compound": "CCN(C)/C=N/c1cc(Br)c(OC2CCC(c3ccccc3)CC2)nc1C (stereo not shown)", "pest or weed control at 200 ppm": "≥ 50%"}
{"compound": "CCN(C)/C=N/c1cc(Br)c(OCc2ccc(F)c(C)c2)nc1C", "pest or weed control at 200 ppm": "≥ 50%"}
{"compound": "CCN(C)/C=N/c1cc(Br)c(OCc2c(F)cccc2F)nc1C", "pest or weed control at 200 ppm": "≥ 50%"}
{"compound": "CCN(C)/C=N/c1cc(Br)c(OCc2cc(-c3ccccc3)no2)nc1C", "pest or weed control at 200 ppm": "≥ 50%"}
{"compound": "CCN(C)/C=N/c1cc(Br)c(OC(C)c2ccc3c(c2)CCC3)nc1C (stereo not shown)", "pest or weed control at 200 ppm": "≥ 50%"}
{"compound": "CCN(C)/C=N/c1cc(Br)c(OC2CCc3cccc(OC)c3C2)nc1C (stereo not shown)", "pest or weed control at 200 ppm": "≥ 50%"}
{"compound": "CCN(C)/C=N/c1cc(Br)c(OC(C)c2cccs2)nc1C (stereo not shown)", "pest or weed control at 200 ppm": "≥ 50%"}
{"compound": "C=C1CCC(Oc2nc(C)c(/N=C/N(C)CC)cc2Br)CC1", "pest or weed control at 200 ppm": "≥ 50%"}
{"compound": "CCN(C)/C=N/c1cc(Br)c(OC(C)c2ccccc2C#N)nc1C (stereo not shown)", "pest or weed control at 200 ppm": "≥ 50%"}
{"compound": "CCN(C)/C=N/c1cc(Br)c(OC2Cc3ccc(OCc4ccns4)cc3C2)nc1C (stereo not shown)", "pest or weed control at 200 ppm": "≥ 50%"}
{"compound": "C/C=C/c1cc(/N=C/N(C)CC)c(C)nc1OCc1ccccc1C", "pest or weed control at 200 ppm": "≥ 50%"}
{"compound": "CCN(C)/C=N/c1cc(Br)c(OCC[C@H]2CC[C@@H](O)CC2)nc1C", "pest or weed control at 200 ppm": "≥ 50%"}
{"compound": "CCN(C)/C=N/c1cc(Br)c(OC2C(C)CCCC2C)nc1C (stereo not shown)", "pest or weed control at 200 ppm": "≥ 50%"}
{"compound": "CCN(C)/C=N/c1ccc(OC(C)c2cc(C)cc(C)c2)nc1C (stereo not shown)", "pest or weed control at 200 ppm": "≥ 50%"}
{"compound": "CCC(Oc1ccc(/N=C/N(C)CC)c(C)n1)c1ccccc1 (stereo not shown)", "pest or weed control at 200 ppm": "≥ 50%"}
{"compound": "CCN(C)/C=N/c1cc(Br)c(OCc2snc(-c3ccccc3)c2Cl)nc1C", "pest or weed control at 200 ppm": "≥ 50%"}

---

- Test system: Botrytis cinerea
- runDescription: Botrytis cinerea (gray mould), PDB microtiter plate, visual after 72 hrs
- Format: cell-based
- experimentalSetup: Botrytis cinerea, alone, rate 2 ppm
measurementKind: inhibition at 2 ppm (%)

{"compound": "CCN(C)/C=N/c1cc(Br)c(OC2Cc3ccccc3C2)nc1C [Q.062]", "measurementKind": "inhibition at 2 ppm", "reportedMeasurement": 0}
{"compound": "COC(=O)N(OC)c1ccccc1COc1ccn(-c2ccc(Cl)cc2)n1 [Pyraclostrobin]", "measurementKind": "inhibition at 2 ppm", "reportedMeasurement": 70}
{"compound": "CON=C(C(=O)OC)c1ccccc1CON=C(C)c1cccc(C(F)(F)F)c1 [Trifloxystrobin]", "measurementKind": "inhibition at 2 ppm", "reportedMeasurement": 50}
{"compound": "OC(Cn1cncn1)(c1ccc(F)cc1)c1ccccc1F (stereo not drawn) [Flutriafol]", "measurementKind": "inhibition at 2 ppm", "reportedMeasurement": 0}
{"compound": "CCN(C)/C=N/c1cc(Br)c(O[C@H]2CC[C@@H](C(C)C)CC2)nc1C [Q.135]", "measurementKind": "inhibition at 2 ppm", "reportedMeasurement": 70}
{"compound": "CCN(C)/C=N/c1cc(Br)c(OC(C)c2cc(F)cc(F)c2)nc1C (stereo not drawn) [Q.113]", "measurementKind": "inhibition at 2 ppm", "reportedMeasurement": 0}

---

- Tested on: Septoria tritici
- runDescription: Septoria tritici (leaf blotch), YBG microtiter plate, photometric growth inhibition after 6 days
- Format: cell-based
- experimentalSetup: Zymoseptoria tritici, 144 h, solo, rate 1.25 ppm
Kind request: treat 40% as inclusive, so inhibition of growth at 1.25 ppm at 40% or higher is YES, anything lower is NO.

{"compound": "CCN(C)/C=N/c1cc(Br)c(O[C@H]2CC[C@@H](C(C)C)CC2)nc1C", "classAssignment": "NO"}
{"compound": "CC(C)(C)C(O)(CCc1ccc(Cl)cc1)Cn1cncn1 (centres unmarked)", "classAssignment": "NO"}
{"compound": "CCN(C)/C=N/c1cc(Br)c(OC(C)c2cc(F)cc(F)c2)nc1C (centres unmarked)", "classAssignment": "YES"}
{"compound": "CCN(C)/C=N/c1cc(Br)c(OC2Cc3ccccc3C2)nc1C", "classAssignment": "YES"}
